- Procedure text: Viscosity responsiveness: fluorescence emission spectra of probes in glycerol and methanol
- Format: physicochemical
- Condition parameters: probe 1×10^−5 M
Parameter Fluorescence ratio in glycerol to methanol: see the listing below.
Field format: numeric only.

Example cases with answers are listed next.
{"columns": ["Given smiles", "Data value"],
 "data": [
  ["CC(C)(C)OC(=O)/C(C#N)=C/c1ccc2c(c1)SCCN2CCOC(=O)NCc1ccc(COc2nc(N)nc3[nH]cnc23)cc1", 103],
  ["CN1C(=O)/C(=C/c2ccc(N(C)CCOC(=O)NCc3ccc(COc4nc(N)nc5[nH]cnc45)cc3)cc2)N=C1c1ccccc1", 560],
  ["CN1C(=O)/C(=C/c2ccc(N(C)CCOC(=O)NCc3ccc(COc4nccc(N)n4)cc3)cc2)N=C1/C=C/c1ccccc1", 402],
  ["CN(CCOC(=O)NCc1ccc(COc2nc(N)nc3[nH]cnc23)cc1)c1ccc2c(c1)sc1cc(/C=C(/C#N)C(=O)OC(C)(C)C)sc12", 531],
  ["CN(CCOC(=O)NCc1ccc(COc2cc(Cl)nc(N)n2)cc1)c1ccc2cc(/C=C(\\C#N)C(=O)OC(C)(C)C)sc2c1", 1781]
]}

### Prompt # get_value(readout='Fluorescence ratio in glycerol to methanol', item= "CN(CCOC(=O)NCc1ccc(COc2nc(N)nc3[nH]cnc23)cc1)c1cc2sc3cc(/C=C(\C#N)C(=O)OC(C)(C)C)sc3c2s1" )
### Response 1199

### Prompt # get_value(readout='Fluorescence ratio in glycerol to methanol', item= "CN(CCOC(=O)NCc1ccc(COc2nc(N)nc3[nH]cnc23)cc1)c1ccc2cc(/C=C(\C#N)c3nc4ccccc4o3)sc2c1" )
### Response 1135

### Prompt # get_value(readout='Fluorescence ratio in glycerol to methanol', item= "CN(CCOC(=O)NCc1ccc(COc2nc(N)nc3[nH]cnc23)cc1)c1cc2sc(/C=C(\C#N)C(=O)O)cc2s1" )
### Response 526

### Prompt # get_value(readout='Fluorescence ratio in glycerol to methanol', item= "CC(C)(C)OC(=O)/C(C#N)=C/c1cc2ccc(N(CCOC(=O)NCCCS(=O)(=O)O)CCOC(=O)NCc3ccc(COc4nc(N)nc5[nH]cnc45)cc3)cc2s1" )
### Response 892

### Prompt # get_value(readout='Fluorescence ratio in glycerol to methanol', item= "CC1=CC(C)(C)N(CCOC(=O)NCc2ccc(COc3nc(N)nc4[nH]cnc34)cc2)c2ccc(/C=C(\C#N)c3nc4ccccc4o3)cc21" )
### Response 298

* * *

- Study system: SNAP protein tags (Homo sapiens, UniProt P16455, A127T/A154D/C150Q/C62A/E30R/G131K/G132T/G153L/K125A/K32I/L33F/M134L/N157G/Q115S/Q116H/R128A/R135S/S151G/S152D/S159E)
- Sequence (P16455 1-182 with the stated changes): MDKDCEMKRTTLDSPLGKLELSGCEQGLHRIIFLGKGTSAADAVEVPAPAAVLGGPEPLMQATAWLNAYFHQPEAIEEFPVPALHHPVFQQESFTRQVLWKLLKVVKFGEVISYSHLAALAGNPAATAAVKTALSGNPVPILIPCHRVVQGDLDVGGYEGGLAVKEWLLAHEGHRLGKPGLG
- Procedure text: Fluorescence activation of probe after incubation with corresponding protein tag (SNAP)
- Assay type: biochemical
- Condition parameters: probe 5 μM, protein tag 10 μM, 37° C., 1 hr
Parameter Quantum yield of probe bound to protein tag: see the listing below.
Field format: numeric only.

Example cases with answers are listed next.
{"columns": ["Compound", "Data value"],
 "data": [
  ["CN(CCOC(=O)NCc1ccc(COc2nc(N)nc3[nH]cnc23)cc1)c1ccc(/C=C(\\C#N)C(=O)OC(C)(C)C)cc1", 0.35],
  ["CN(CCOC(=O)NCc1ccc(COc2cc(Cl)nc(N)n2)cc1)c1cc2sc(/C=C(\\C#N)c3nc4ccccc4s3)cc2s1", 0.42],
  ["CN(CCOC(=O)NCc1ccc(COc2nc(N)nc3[nH]cnc23)cc1)c1ccc(-c2ccc(/C=C(\\C#N)C(=O)O)s2)cc1", 0.39],
  ["CN(CCOC(=O)NCc1ccc(COc2cc(Cl)nc(N)n2)cc1)c1cc2sc(/C=C(\\C#N)c3nc4ccccc4o3)cc2s1", 0.36]
]}

### Prompt # get_value(readout='Quantum yield of probe bound to protein tag', item= CN(CCO)c1ccc(-c2ccc(/C=C(\C#N)C(=O)NCc3ccc(COc4nc(N)nc5[nH]cnc45)cc3)s2)s1 [Reference Probe 121, reference compound] )
### Response 0.01

### Prompt # get_value(readout='Quantum yield of probe bound to protein tag', item= "CN(CCOC(=O)NCc1ccc(COc2cc(Cl)nc(N)n2)cc1)c1cc2sc(/C=C(\C#N)C(=O)OC(C)(C)C)cc2s1" )
### Response 0.48
